assayText: Stability in mouse hepatocytes relative to hepatic blood flow
Assay type: ADME, cell-based, Hepatocyte
studyConditions: read-out: Stability

| structureAsSmiles | hepatic extraction ratio |
| --- | --- |
| Cc1cc2c(cc(C(=O)N[C@H](CO)c3ccc(S(=O)(=O)CC(=O)O)cc3)n2C)c(Cl)c1Cl | 0.38 |

---

measuredOn: UniProt:O43175
Sequence (O43175 whole entry): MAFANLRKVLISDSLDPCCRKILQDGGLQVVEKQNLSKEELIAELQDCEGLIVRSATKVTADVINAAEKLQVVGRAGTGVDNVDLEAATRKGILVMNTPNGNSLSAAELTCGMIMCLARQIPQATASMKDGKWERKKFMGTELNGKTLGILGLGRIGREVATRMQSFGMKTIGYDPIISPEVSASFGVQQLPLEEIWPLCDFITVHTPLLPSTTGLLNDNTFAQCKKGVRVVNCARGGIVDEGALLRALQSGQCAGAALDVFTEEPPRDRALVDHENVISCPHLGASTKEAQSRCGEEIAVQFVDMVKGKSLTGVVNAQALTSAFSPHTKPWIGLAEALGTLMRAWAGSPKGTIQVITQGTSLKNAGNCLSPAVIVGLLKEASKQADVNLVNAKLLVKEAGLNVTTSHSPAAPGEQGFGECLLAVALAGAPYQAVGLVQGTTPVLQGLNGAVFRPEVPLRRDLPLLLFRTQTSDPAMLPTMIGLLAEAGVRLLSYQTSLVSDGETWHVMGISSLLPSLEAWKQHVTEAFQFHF
assayText: Inhibition of N-terminal His6-tagged human PHGDH (4 to 315 residues) assessed as effect on NADH fluorescence incubated for 2 hrs using 3-PG substrate in presence of 250 uM NAD+ and PSAT1 by diaphorase based luminescence assay
Measured IC50 by item

| structureAsSmiles | IC50 / nM |
| --- | --- |
| Cc1cc2c(cc(C(=O)N[C@H](C)c3ccc(C(=O)O)cc3)n2C)c2ccccc12 | 249 |
| CCc1cc(Cl)c2cc(C(=O)N[C@H](C)c3ccc(C(=O)O)cc3)n(C)c2c1 | 301 |
| C[C@@H](NC(=O)c1cc2cc(Cl)c(Br)cc2n1C)c1ccc(C(=O)O)cc1 | 341 |
| C[C@@H](NC(=O)c1cc2cc(Cl)ccc2n1C)c1ccc(C(=O)O)cc1 | 2370 |

---

Measured IC50 by item
measuredOn: D-3-phosphoglycerate dehydrogenase (Homo sapiens, UniProt O43175)
Sequence (O43175 whole entry): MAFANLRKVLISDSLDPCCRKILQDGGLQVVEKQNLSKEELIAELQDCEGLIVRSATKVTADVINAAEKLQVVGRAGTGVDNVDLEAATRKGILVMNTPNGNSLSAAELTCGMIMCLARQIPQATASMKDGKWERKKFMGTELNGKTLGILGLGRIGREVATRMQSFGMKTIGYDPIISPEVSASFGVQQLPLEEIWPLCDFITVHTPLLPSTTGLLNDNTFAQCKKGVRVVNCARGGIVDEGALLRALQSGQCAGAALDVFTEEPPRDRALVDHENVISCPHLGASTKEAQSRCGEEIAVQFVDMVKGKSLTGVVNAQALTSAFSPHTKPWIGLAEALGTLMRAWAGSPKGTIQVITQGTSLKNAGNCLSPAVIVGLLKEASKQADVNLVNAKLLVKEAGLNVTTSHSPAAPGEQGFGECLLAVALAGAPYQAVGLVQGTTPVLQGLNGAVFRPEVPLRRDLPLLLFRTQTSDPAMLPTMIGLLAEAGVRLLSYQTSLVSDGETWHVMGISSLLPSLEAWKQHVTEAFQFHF
assayText: Inhibition of N-terminal His6-tagged human PHGDH (4 to 315 residues) assessed as effect on NADH fluorescence incubated for 2 hrs using 3-PG substrate in presence of 19 uM NAD+ and PSAT1 by diaphorase based luminescence assay
valueType: IC50 (nM)

| structureAsSmiles | result |
| --- | --- |
| CC(=O)NS(=O)(=O)c1ccc([C@@H](C)NC(=O)c2cc(-c3ccccc3)nn2C)cc1 | 100 |
| COc1cc(Cl)cc2cc(C(=O)N[C@H](C)c3ccc(C(=O)O)cc3)n(C)c12 | 72 |
| COc1ccc([C@@H](C)NC(=O)c2cc(-c3ccccc3)nn2C)cc1 | 16200 |
